# Test system: A549
# test_name: Anticancer activity against human A549 cells assessed as reduction in cell growth incubated for 48 hrs by MTT assay
# Format: functional, cell-based
# experimental_conditions: A549, 48 h
observed_property: IC50 (µM)
# value in µM; strip the unit string

[[record]]
smi = "Cc1ccc2[nH]c(-c3cn(-c4ccccc4)nc3-c3ccccc3)nc2c1"
observed_property = "IC50"
recorded_measurement = 3.61


Fill: IC50 (A549) for this compound "COc1ccc(-c2nn(-c3ccccc3)cc2-c2nc3cc(C)ccc3[nH]2)cc1" 5.07

Fill: IC50 (A549) for this compound "Fc1ccc(-c2nn(-c3ccccc3)cc2-c2nc3cc4ccccc4cc3[nH]2)cc1" 21.5

Fill: IC50 (A549) for this compound "Fc1ccc2[nH]c(-c3cn(-c4ccccc4)nc3-c3ccccc3)nc2c1" 1.72

Fill: IC50 (A549) for this compound "Cc1cc2nc(-c3cn(-c4ccccc4)nc3-c3ccccc3)[nH]c2cc1C" 14.5

Fill: IC50 (A549) for this compound "O=Cc1cn(-c2ccccc2)nc1-c1ccc(Cl)cc1" 29.5

Fill: IC50 (A549) for this compound "O=c1[nH]cc(F)c(=O)[nH]1" 2.13

Fill: IC50 (A549) for this compound "Clc1cc2nc(-c3cn(-c4ccccc4)nc3-c3ccccc3)[nH]c2cc1Cl" 11.1

---

# System: HeLa
# test_name: Anticancer activity against human HeLa cells assessed as reduction in cell growth incubated for 48 hrs by MTT assay
# Format: functional, cell-based
Consider the reported IC50 of an entry and match it to a band in bottom range (below 2000 nM), center range (2000 nM to below 3000 nM), top range (3000 nM or more)

The examples below pair each entry with its known result.
[[record]]
smi = "Fc1ccc(-c2nn(-c3ccccc3)cc2-c2nc3cc(Cl)ccc3[nH]2)cc1"
assayed_target = "HeLa"
discrete_label = "center range"

[[record]]
smi = "COc1ccc(-c2nn(-c3ccccc3)cc2-c2nc3cc4ccccc4cc3[nH]2)cc1"
assayed_target = "HeLa"
discrete_label = "top range"

[[record]]
smi = "COc1ccc(-c2nn(-c3ccccc3)cc2-c2nc3cc(Cl)ccc3[nH]2)cc1"
assayed_target = "HeLa"
discrete_label = "bottom range"


Could you now consider this next compound?
Lab log: "COc1ccc(-c2nn(-c3ccccc3)cc2-c2nc3cc(C(F)(F)F)ccc3[nH]2)cc1" — assign IC50 category center range

---

# System: HeLa
# test_name: Anticancer activity against human HeLa cells assessed as reduction in cell growth incubated for 48 hrs by MTT assay
# Format: functional, cell-based
observed_property: pIC50
Lab note: report pIC50 as minus log10 of the concentration in molar units, number only.

Solved entries:
[[record]]
smi = "Fc1ccc(-c2nn(-c3ccccc3)cc2-c2nc3cc(Cl)c(Cl)cc3[nH]2)cc1"
observed_property = "pIC50"
recorded_measurement = 4.94

[[record]]
smi = "COc1ccc(-c2nn(-c3ccccc3)cc2-c2nc3ccccc3[nH]2)cc1"
observed_property = "pIC50"
recorded_measurement = 5.44

[[record]]
smi = "COc1ccc(-c2nn(-c3ccccc3)cc2-c2nc3cc(Br)ccc3[nH]2)cc1"
observed_property = "pIC50"
recorded_measurement = 5.97


Look up and report measured pIC50 for this entry: "Clc1ccc(-c2nn(-c3ccccc3)cc2-c2nc3cc(Cl)ccc3[nH]2)cc1" 5.79

Look up and report measured pIC50 for this entry: "Cc1ccc2[nH]c(-c3cn(-c4ccccc4)nc3-c3ccc(F)cc3)nc2c1" 5.44

Look up and report measured pIC50 for this entry: "Clc1ccc(-c2nn(-c3ccccc3)cc2-c2nc3cc4ccccc4cc3[nH]2)cc1" 5.09

Look up and report measured pIC50 for this entry: "Fc1ccc2[nH]c(-c3cn(-c4ccccc4)nc3-c3ccccc3)nc2c1" 5.44

Look up and report measured pIC50 for this entry: "COc1ccc(-c2nn(-c3ccccc3)cc2-c2nc3cc(C)ccc3[nH]2)cc1" 5.48

Look up and report measured pIC50 for this entry: "COc1ccc(-c2nn(-c3ccccc3)cc2-c2nc3cc(C)c(C)cc3[nH]2)cc1" 5.05

Look up and report measured pIC50 for this entry: "Fc1ccc(-c2nn(-c3ccccc3)cc2-c2nc3cc4ccccc4cc3[nH]2)cc1" 4.63

Sourced from ChEMBL document CHEMBL3612055
